# Percentage of motility inhibition 0 h annotations
# Tested on: C. elegans
# conditionSet: Table S2, C. elegans SS assay, 110 μM, 0 h, averages of 4 data points
Dear colleague, please return just the value in %, with no unit written.

Exercise: Give Percentage of motility inhibition 0 h only, for COc1ccc2[nH]cc(CCO)c2c1 , using C. elegans data.
Solution: 25

---

# Tested on: C. elegans
# testProtocol: microbe, parasite or virus in culture
# conditionSet: Caenorhabditis elegans, 0 h, read-out: Percentage of motility inhibition 0 h, Table S2, C. elegans SS assay, 110 μM, 0 h, averages of 4 data points
Catalogue of inhibition at 110 µM values

These recorded examples may help you get a feel for the data.
C=C(CC[C@@H](C(=O)O)[C@H]1[C@H](O)C[C@@]2(C)C3=CC[C@H]4C(C)(C)[C@@H](O)CC[C@]4(C)C3=CC[C@]12C)C(C)C [Dehydrotumulosic acid]: 11%
C=C[C@H]1C[N@@]2CC[C@H]1C[C@@H]2[C@@H](O)c1ccnc2ccc(OC)cc12: 23%
COc1cc([C@@H]2c3cc4c(cc3[C@H](O)[C@H]3COC(=O)[C@H]23)OCO4)cc(OC)c1OC: 0%

Exercise: Please report the measured inhibition at 110 µM for COc1cc(CNC(=O)CCCCCCC(C)C)ccc1O [Dihydrocapsaicin]
Solution: 0%

Exercise: Consider the compound CC(C)=CCC[C@](C)(O)[C@H]1CC[C@]2(C)[C@@H]1[C@H](O)C[C@@H]1[C@@]3(C)CC[C@H](O[C@@H]4O[C@H](CO)[C@@H](O)[C@H](O)[C@H]4O)C(C)(C)[C@@H]3CC[C@]12C [Ginsenoside Rh2] and give its recorded inhibition at 110 µM.
Solution: 34%

---

# Tested on: C. elegans
# testProtocol: microbe, parasite or virus in culture
# conditionSet: Caenorhabditis elegans, 24 h, read-out: Percentage of motility inhibition 24 h, Table S2, C. elegans SS assay, 110 μM, 24 h, averages of 4 data points
I would appreciate it if you labelled entries Met when inhibition at 110 µM is 4% or higher, otherwise Not met.

Use these answered entries as a reference point.
N#Cc1ccc(C(c2ccc(C#N)cc2)n2cncn2)cc1 [Letrozole]: Not met
C[C@@H]1CC[C@@]2(NC1)O[C@H]1C[C@H]3[C@@H]4CC=C5C[C@@H](O[C@@H]6O[C@H](CO)[C@@H](O[C@@H]7O[C@@H](C)[C@H](O)[C@@H](O)[C@H]7O)[C@H](O)[C@H]6O[C@@H]6O[C@@H](C)[C@H](O)[C@@H](O)[C@H]6O)CC[C@]5(C)[C@H]4CC[C@]3(C)[C@H]1[C@@H]2C [Solamargine]: Not met
O=C1C[C@@H](c2ccccc2)Oc2cc(O)cc(O)c21 [Pinocembrin]: Met
O=c1c(O[C@@H]2O[C@H](CO)[C@@H](O)[C@H](O)[C@H]2O)c(-c2ccc(O)cc2)oc2cc(O)cc(O)c12 [Astragalin]: Not met

Exercise: Confirm if inhibition at 110 µM reported for the molecule CC(C)=CCC[C@@H](C)[C@@H]1CC[C@]2(C)C3=C(CC[C@@]12C)[C@@]1(C)CC[C@H](O)C(C)(C)[C@@H]1CC3 [Euphol] is 4% or above.
Solution: Met

---

# Test system: C. elegans
# conditionSet: Table S2, C. elegans SS assay, 110 μM, 0 h, averages of 4 data points
Classify by measured Percentage of motility inhibition 0 h: MET if it is equal to or exceeds 20%, NOT MET if it is smaller.

Past entries and their recorded results:
CC1(C)C[C@H]2C3=CC[C@@H]4[C@@]5(C)CC[C@H](O)[C@@](C)(CO)[C@@H]5CC[C@@]4(C)[C@]3(C)C[C@H](O)[C@@]2(CO)[C@@H](O)[C@@H]1O: NOT MET
COc1cc2c3c(c1OC)-c1ccccc1C[C@H]3[N+](C)(C)CC2: NOT MET
C[C@@H]1O[C@@H](OC[C@H]2O[C@@H](Oc3c(-c4ccc(O)cc4)oc4cc(O)cc(O)c4c3=O)[C@H](O)[C@@H](O)[C@@H]2O)[C@H](O)[C@H](O)[C@H]1O: NOT MET

Exercise: Is the recorded value of Percentage of motility inhibition 0 h equal to or greater than 20% for this compound? CCCCC/C=C\C/C=C\CCCCCCCC(=O)NCc1ccccc1 [N‐Benzyllinoleamide]
Solution: NOT MET

Exercise: Tell me whether Percentage of motility inhibition 0 h is at least 20% here: C[C@@H]1C[C@H]2O[C@@]3(O[C@@H]2C(C)(C)O)[C@H](O)[C@@]2(C)[C@@H]4CC[C@H]5C(C)(C)[C@@H](O[C@@H]6OC[C@@H](O)[C@H](O)[C@H]6O)CC[C@@]56C[C@@]46CC[C@]2(C)[C@@H]13 [Cimigenoside]
Solution: MET

Exercise: Answer whether Percentage of motility inhibition 0 h of COc1cc2c(cc1O)C[C@@H]1NCCc3cc(O)c(OC)c-2c31.Cl [Laurolitsine (hydrochloride)] is greater than or equal to 20%.
Solution: MET

---

# System: C. elegans
# testProtocol: microbe, parasite or virus in culture
# conditionSet: Caenorhabditis elegans, 24 h, read-out: Percentage of motility inhibition 24 h, Table S2, C. elegans SS assay, 110 μM, 24 h, averages of 4 data points
Please map values of inhibition at 110 µM to classes as shown: group 1: < 3%; group 2: ≥ 3% and < 10%; group 3: ≥ 10%

CC(C)=CCC[C@@H](C)CC=O [(R)-(+)-Citronellal]: group 2
CCC(=O)c1c(O)cc(O)cc1O [Flopropione]: group 3
CC1(C)C[C@@H](O)[C@]2(C)CC[C@]3(C)C(=CC[C@@H]4[C@@]5(C)CC[C@H](O)[C@](C)(CO)[C@@H]5CC[C@]43C)[C@@H]2C1 [Soyasapogenol B]: group 3
Cc1cc(O)cc(C)c1Cl [Chloroxylenol, reference compound]: group 3
C[C@H](C[C@H](O)[C@@H](O)C(C)(C)O)C1=C2C[C@H](O)[C@H]3[C@@]4(C)CCC(=O)C(C)(C)[C@@H]4CC[C@]3(C)[C@@]2(C)CC1 [Alisol A]: group 1

Exercise: Please report the category associated with CN1CCc2cc3c(cc2[C@H]1[C@@H]1OC(=O)c2c1ccc1c2OCO1)OCO3 [Bicuculline] , nothing else.
Solution: group 2

Exercise: Hi there! Could you help me figure out the category for O=c1cc(-c2ccccc2)oc2c(O)c(O)cc(O)c12 [Norwogonin] please?
Solution: group 3

Exercise: Hello team, could you let me know which band the following compound falls into: COc1ccc(-c2cc(=O)c3c(O)c(OC)c(OC)c(OC)c3o2)cc1 [Gardenin B]
Solution: group 1

Exercise: Please classify: CN(C(=O)CN(CCO)CC(=O)N(C)C(C)(C)Cc1ccccc1)C(C)(C)Cc1ccccc1 [Oxethazaine]
Solution: group 3

---

# System: C. elegans
# conditionSet: Table S2, C. elegans SS assay, 110 μM, 0 h, averages of 4 data points
Outcome label depends on Percentage of motility inhibition 0 h relative to 4%: at/above gives YES, below gives NO.

CC(=O)c1ccccc1O [2'‐Hydroxyacetophenone]: NO

Exercise: Given the entry C[C@@H]1O[C@@H](O[C@H]2[C@H](Oc3c(-c4ccc(O)cc4)oc4cc(O)cc(O)c4c3=O)O[C@H](CO)[C@@H](O)[C@@H]2O)[C@H](O)[C@H](O)[C@H]1O [Kaempferol 3‐neohesperidoside] , answer whether its Percentage of motility inhibition 0 h meets or surpasses 4%.
Solution: YES

Exercise: Can CC1OC2OC3C(OCC(O)C3O)OC(=O)C34CCC(C)(C)CC3C3=CCC5C6(C)CC(O)C(OC7OC(CO)C(O)C(O)C7OC7OCC(OC(=O)CC(C)(O)CC(=O)OC1C(OC1OCC(O)C(O)C1O)C2O)C(O)C7O)C(C)(CO)C6CCC5(C)C3(C)CC4O (centres unmarked) [Tubeimoside II] be said to have Percentage of motility inhibition 0 h at or above 4%?
Solution: NO

Exercise: Decide: Percentage of motility inhibition 0 h of COc1cc2c(cc1OC)-c1cc3ccc(OC)c(OC)c3c[n+]1CC2.[OH-] [Palmatine (hydroxide)] >= 4%?
Solution: NO

Exercise: Quick check: does CCN(CC)C(=O)c1cccc(C)c1 have Percentage of motility inhibition 0 h greater than or equal to 4%?
Solution: YES

Exercise: State whether the measured Percentage of motility inhibition 0 h reaches 4%, counting equality as reaching it, for CC(C)(C)C(=O)OCOC(=O)[C@@H]1N2C(=O)[C@@H](N=CN3CCCCCC3)[C@H]2SC1(C)C.Cl [Pivmecillinam (hydrochloride)]
Solution: YES

---

Reported values of inhibition at 110 µM for individual entries
# Tested on: C. elegans
# testProtocol: microbe, parasite or virus in culture
# conditionSet: Caenorhabditis elegans, 0 h, read-out: Percentage of motility inhibition 0 h, Table S2, C. elegans SS assay, 110 μM, 0 h, averages of 4 data points
Field format: number, assumed %, no unit text.

The cases that follow already have their inhibition at 110 µM on record.
O=C(O)CCCCCCCC(=O)O: 0
CCN1C[C@]2(COC)[C@H](O)C[C@H](OC)[C@]34C1[C@H]([C@H](OC)[C@H]23)[C@]1(O)[C@H]2[C@@H](O)[C@](O)(C[C@H]24)[C@@H](OC)[C@@H]1O: 10
COc1cc(O)c2c(=O)c(O[C@@H]3O[C@H](CO)[C@@H](O)[C@H](O)[C@H]3O)c(-c3ccc(O[C@@H]4O[C@H](CO)[C@@H](O)[C@H](O)[C@H]4O)cc3)oc2c1 [Complanatuside]: 0
C=C[C@]1(C)C[C@@H](OC(=O)CS[C@@H]2C[C@H]3CC[C@@H](C2)N3C)[C@]2(C)[C@H](C)CC[C@]3(CCC(=O)[C@H]32)[C@@H](C)[C@@H]1O: 27

Exercise: Consider the compound CCCCC(C#N)(Cn1cncn1)c1ccc(Cl)cc1 (centres unmarked) and give its recorded inhibition at 110 µM.
Solution: 30

Exercise: Find the measured inhibition at 110 µM of C/C=C(\C)C(=O)N[C@@H](c1ccccc1)[C@@H](O)C(=O)O[C@H]1C[C@@]2(O)[C@@H](OC(=O)c3ccccc3)[C@@H]3[C@]4(OC(C)=O)CO[C@@H]4C[C@H](O)[C@@]3(C)C(=O)[C@H](OC(C)=O)C(=C1C)C2(C)C and report it.
Solution: 31

Exercise: Tell me its inhibition at 110 µM given Cc1c(C)[n+](Cc2ccccc2)cn1Cc1ccccc1 [Lepidiline A] as the entry.
Solution: 5

Exercise: Retrieve inhibition at 110 µM measured for CCC(C)n1ncn(-c2ccc(N3CCN(c4ccc(OCC5COC(Cn6cncn6)(c6ccc(Cl)cc6Cl)O5)cc4)CC3)cc2)c1=O (centres unmarked) and print it.
Solution: 18

Exercise: Check the records and state inhibition at 110 µM for C[C@H]1[C@H](C)CC[C@]2(C(=O)O)CC[C@]3(C)C(=CC[C@@H]4[C@@]5(C)C[C@@H](O)[C@H](O)C(C)(C)[C@@H]5CC[C@]43C)[C@H]12
Solution: 23

Exercise: Look up and state reported inhibition at 110 µM for CC[C@H]1CN2CC[C@H]1C[C@H]2[C@H](O)c1ccnc2ccc(OC)cc12 [Hydroquinine]
Solution: 0

Exercise: Return reported inhibition at 110 µM. Input compound: CC(C)=CCC[C@](C)(O[C@@H]1O[C@H](CO)[C@@H](O)[C@H](O)[C@H]1O)[C@H]1CC[C@]2(C)[C@@H]1[C@H](O)C[C@@H]1[C@@]3(C)CC[C@H](O[C@@H]4O[C@H](CO)[C@@H](O)[C@H](O)[C@H]4O[C@@H]4O[C@H](CO)[C@@H](O)[C@H](O)[C@H]4O)C(C)(C)[C@@H]3CC[C@]12C [Ginsenoside Rd]
Solution: 4
